Target: T1, apelin receptor (AGTRL1) on CHO-K1 cells (UniProt P35414 1-380, limits assumed)
T1 sequence (looked up): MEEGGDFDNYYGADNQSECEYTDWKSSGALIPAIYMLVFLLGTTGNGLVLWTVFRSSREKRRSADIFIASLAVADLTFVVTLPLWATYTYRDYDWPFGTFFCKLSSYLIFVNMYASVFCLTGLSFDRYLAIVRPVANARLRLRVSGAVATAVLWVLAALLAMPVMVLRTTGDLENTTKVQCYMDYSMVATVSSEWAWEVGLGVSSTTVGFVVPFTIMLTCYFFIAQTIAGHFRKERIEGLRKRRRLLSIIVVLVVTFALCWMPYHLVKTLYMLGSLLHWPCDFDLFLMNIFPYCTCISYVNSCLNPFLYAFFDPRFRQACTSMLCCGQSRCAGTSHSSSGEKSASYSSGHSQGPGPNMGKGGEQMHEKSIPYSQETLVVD
Assay: cell-based or functional assay
Value Type: cAMP EC50 (nM) Exp. 1
Expressed in nM, but write only the number.

Answered examples (2):
Binder | cAMP EC50 (nM) Exp. 1
ELA-E (Fc fusion) DKTHTSPPSPAPEAAGGPSVFLFPPKPKDTLMISRTPEVTCVVVDVSHEDPEVKFNWYVDGVEVHNAKTKPREEQYNSTYRVVSVLTVLHQDWLNGKEYKCKVSNKALPAPIEKTISKAKGQPREPQVYTLPPSREEMTKNQVNLTCLVKGFYPSDIAVEWESNGQPENNYKTTPPVLDSDGSFFLNSTLTVDKSRWQQGNVFSCSVMHEALHNHYTQKSLSLSPGKGGGGSGGGGSGGGGSKLRKHNCLQRRCMPLHRRVPFP | 4.42
ELA-F (Fc fusion) DKTHTSPPSPAPEAAGGPSVFLFPPKPKDTLMISRTPEVTCVVVDVSHEDPEVKFNWYVDGVEVHNAKTKPREEQYNSTYRVVSVLTVLHQDWLNGKEYKCKVSNKALPAPIEKTISKAKGQPREPQVYTLPPSREEMTKNQVNLTCLVKGFYPSDIAVEWESNGQPENNYKTTPPVLDSDGSFFLNSTLTVDKSRWQQGNVFSCSVMHEALHNHYTQKSLSLSPGKGGGGSGGGGSGGGGSKLRKHNCLKRRCMPLHSRVPFP | 1.01

Query binder follows.
Query: Specify cAMP EC50 (nM) Exp. 1 for ELA-G (Fc fusion) DKTHTSPPSPAPEAAGGPSVFLFPPKPKDTLMISRTPEVTCVVVDVSHEDPEVKFNWYVDGVEVHNAKTKPREEQYNSTYRVVSVLTVLHQDWLNGKEYKCKVSNKALPAPIEKTISKAKGQPREPQVYTLPPSREEMTKNQVNLTCLVKGFYPSDIAVEWESNGQPENNYKTTPPVLDSDGSFFLNSTLTVDKSRWQQGNVFSCSVMHEALHNHYTQKSLSLSPGKGGGGSGGGGSGGGGSKLRKHNCLQRRCMPLHSYVPFP and stop.
Reply: 9.91
